IC50, human BACE1 (Homo sapiens): measured values

CCn1cc(C2(c3cccc(-c4cccnc4F)c3)N=C(N)N(C)C2=O)cc1CO (centres unmarked): 10 to 100 nM
CCC(=O)c1cc(C2(c3cccc(-c4cccnc4F)c3)N=C(N)N(C)C2=O)cn1CC(C)C (centres unmarked): 10 to 100 nM
CN1C(=O)C(c2cccc(-c3cc(C#N)ccc3F)c2)(c2cnn(CC(F)(F)F)c2)N=C1N (centres unmarked): 110 to 1000 nM

Request: I am curious: what IC50 value has been reported for CCC(=O)c1cc(C2(c3cccc(-c4cccnc4F)c3)N=C(N)N(C)C2=O)cn1CC(F)(F)F (centres unmarked) ?
Response: 10 to 100 nM

Request: Next compound: CCn1cc([C@]2(c3cccc(-c4cccnc4F)c3)N=C(N)N(C)C2=O)cn1 [Example 44B]
Response: 10 to 100 nM

Request: Continue with CCC(=O)c1cc(C2(c3cccc(-c4cccnc4F)c3)N=C(N)N(C)C2=O)cn1CCC(C)C (centres unmarked)
Response: 10 to 100 nM

Request: What about this compound? CCC(=O)c1cc(C2(c3cccc(OCC4CC4)c3)N=C(N)N(C)C2=O)cn1CC (centres unmarked)
Response: 10 to 100 nM

Request: Follow-up entry: CN1C(=O)C(c2cccc(OCc3ccccc3)c2)(c2cnn(CC(F)(F)F)c2)N=C1N (centres unmarked)
Response: > 1000 nM

Request: Also CCC(=O)c1cc([C@]2(c3cccc(-c4cccnc4F)c3)N=C(N)N(C)C2=O)cn1CCCCF ?
Response: 10 to 100 nM

Request: Try CCCCNC(=O)c1cc(C2(c3cccc(-c4cccnc4F)c3)N=C(N)N(C)C2=O)cn1CC (centres unmarked) next.
Response: 10 to 100 nM

Request: Could you do the same for CC(C)n1cc(C2(c3ccc(F)c(-c4cccnc4F)c3)N=C(N)N(C)C2=O)cn1 (centres unmarked) , please?
Response: 10 to 100 nM

----------
Assay read-out IC50; system under study: human BACE1 (Homo sapiens, UniProt P56817).
Sequence (P56817 46-501): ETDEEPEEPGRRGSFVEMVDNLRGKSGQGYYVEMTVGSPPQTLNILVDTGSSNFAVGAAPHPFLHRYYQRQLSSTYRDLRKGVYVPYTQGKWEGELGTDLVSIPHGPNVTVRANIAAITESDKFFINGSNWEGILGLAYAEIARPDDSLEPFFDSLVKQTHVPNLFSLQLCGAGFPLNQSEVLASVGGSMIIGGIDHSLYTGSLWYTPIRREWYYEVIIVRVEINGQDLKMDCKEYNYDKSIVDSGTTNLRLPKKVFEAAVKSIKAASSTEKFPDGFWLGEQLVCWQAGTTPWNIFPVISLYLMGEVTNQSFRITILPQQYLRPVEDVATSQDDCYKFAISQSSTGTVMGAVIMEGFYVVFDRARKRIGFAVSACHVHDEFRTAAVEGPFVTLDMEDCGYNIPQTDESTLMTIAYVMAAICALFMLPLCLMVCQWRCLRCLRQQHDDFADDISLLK

Cc1nc(F)ccc1-c1cccc(C2(c3ccsc3)N=C(N)N(C)C2=O)c1 (stereo not shown): > 1000 nM
CCC(=O)c1cc([C@]2(c3cccc(-c4cccnc4F)c3)N=C(N)N(C)C2=O)cn1CC(F)(F)F [Example 224A]: 10 to 100 nM
CCC(=O)Nc1cccc(C2(c3cc(C(=O)CC)n(CC)c3)N=C(N)N(C)C2=O)c1 (stereo not shown): 110 to 1000 nM

Request: So what's the measured IC50 for this one? CN1C(=O)C(c2cccc(-c3cccnc3F)c2)(c2cnn(CC(F)(F)F)c2)N=C1N (stereo not shown)
Response: 10 to 100 nM

Request: What do you get for COC(=O)c1cc(C2(c3cccc(-c4ccc(F)nc4)c3)N=C(N)N(C)C2=O)cn1CCF (stereo not shown) ?
Response: 10 to 100 nM

Request: Continue with CCC(=O)c1cc(C2(c3cccc(-c4cccnc4F)c3)N=C(N)N(C)C2=O)cn1CCCCF (stereo not shown)
Response: 10 to 100 nM

Request: // query: CCC(=O)c1cc([C@]2(c3cccc(-c4cccnc4F)c3)N=C(N)N(C)C2=O)cn1CC1CC1
Response: 10 to 100 nM

Request: Also need CCn1cc(C2(c3cccc(-c4cccnc4F)c3)N=C(N)N(C)C2=O)cc1C(=O)NC1CCCC1 (stereo not shown) , thanks.
Response: 110 to 1000 nM

Request: Same question, CN1C(=O)C(c2cccc(-c3cncnc3)c2)(c2cnn(CCC3CCCCC3)c2)N=C1N (stereo not shown) this time
Response: 10 to 100 nM
